# system tested: UniProtKB Q8NBP7
# Sequence (Q8NBP7 153-692): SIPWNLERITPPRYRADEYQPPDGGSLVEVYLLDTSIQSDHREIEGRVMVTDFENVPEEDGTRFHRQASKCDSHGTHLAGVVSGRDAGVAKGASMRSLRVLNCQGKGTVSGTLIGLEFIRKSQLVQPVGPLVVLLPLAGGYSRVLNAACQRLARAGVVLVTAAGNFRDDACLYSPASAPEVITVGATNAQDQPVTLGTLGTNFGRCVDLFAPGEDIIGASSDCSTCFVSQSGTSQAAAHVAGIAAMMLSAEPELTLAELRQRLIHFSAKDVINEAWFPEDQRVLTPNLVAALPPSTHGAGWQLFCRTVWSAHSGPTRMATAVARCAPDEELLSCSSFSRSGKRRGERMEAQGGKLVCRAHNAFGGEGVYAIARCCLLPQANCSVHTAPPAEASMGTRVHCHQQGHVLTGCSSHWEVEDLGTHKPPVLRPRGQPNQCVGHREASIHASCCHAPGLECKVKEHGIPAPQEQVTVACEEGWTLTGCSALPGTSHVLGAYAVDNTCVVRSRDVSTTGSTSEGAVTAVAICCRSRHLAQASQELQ
# assay info: PCSK9 Alexa FRET Standard assay (displacement of AlexaFluor647 tagged cyclic peptide Reagent A)
# Format: binding
# condition parameters: PCSK9 Alexa FRET Standard assay, 0.5 nM PCSK9, 20 nM AF cyclic peptide Reagent A; read-out: IC50
# Procedure: A solution containing 1 nM biotinylated PCSK9+2.5 nM Lance Streptavidin Europium (Strep-Eu) was made in 50 mM HEPES pH 7.4, 0.15 M NaCl, 5 mM CaCl2), 0.01% BSA, and 0.01% Surfactant P20. […] The reaction was incubated at room temperature for at least two hours prior to fluorescence measurements using an Envision Multilabel Reader. IC50 values were determined by fitting data to a sigmoidal dose-response curve using nonlinear regression. […]
Starred links: 1 amine or outer side, 2 acyl side, 3 side chain; linkers in the order of their positions; H or OH if unused. Positions of bridges follow the written chain, without caps; N, C: chain ends. Non-standard residues stand in square brackets, D forms with d. Residues, ends and D or L forms follow the SMILES beside them. Trp(5-F) = N[C@@H](Cc1c[nH]c2ccc(F)cc12)C(=O)O; Pro(cis-4-F) = O=C(O)[C@@H]1C[C@H](F)CN1; αMeP = C[C@@]1(C(=O)O)CCCN1; Dab = NCC[C@H](N)C(=O)O; Dap = NC[C@H](N)C(=O)O; X2 = O=C(C[*:2])[*:1]
measurement label: IC50

CC(=O)N[C@H]1CNC(=O)COc2ccc(cc2)C[C@@H](C(N)=O)NC(=O)[C@]2(C)CCCN2C(=O)[C@H](Cc2ccc(O)cc2)NC(=O)[C@H](Cc2cnc[nH]2)NC(=O)[C@H](CC(=O)O)NC(=O)[C@H](Cc2c[nH]c3ccc(F)cc23)NC(=O)[C@H](Cc2c[nH]c3ccc(F)cc23)NC(=O)CNC(=O)[C@H](C)NC1=O [Compound 351] (Ac-[Dap]AG[Trp(5-F)][Trp(5-F)]DHY[αMeP]Y-NH2; linker 1-10 via X2)    21 to 50 µM

Sure, the documented IC50 for COc1ccc(C[C@@H]2NC(=O)[C@H]([C@@H](C)O)NC(=O)[C@@H]3C[C@H](F)CN3C(=O)[C@H](Cc3c[nH]c4ccc(F)cc34)NC(=O)[C@H](Cc3c[nH]c4ccc(F)cc34)NC(=O)[C@@H](C)NC(=O)[C@H](CCCCN)NC(=O)[C@@H](NC(C)=O)CCNC(=O)COc3ccc(cc3)C[C@@H](C(N)=O)NC(=O)[C@]3(C)CCCN3C2=O)cc1 [Compound 075] (Ac-[Dab]K[dA][Trp(5-F)][Trp(5-F)][Pro(cis-4-F)]TY(Me)[αMeP]Y-NH2; linker 1-10 via X2) is 21 to 50 µM
